The measured values listed here are drawn from patent US20250277059A1.

- system_tested: T1, Human TMPRSS2 recombinant protein, extracellular region (N-terminal His tag, C-terminal Strep-tag II) (human, UniProt O15393 106-492)
- T1 construct: also called Human TMPRSS2 recombinant proteins; extracellular region of human TMPRSS2
- protocol_text: SPR (BIAcore), captured mAb, soluble human TMPRSS2 extracellular region
metric_name: kon (M⁻¹ s⁻¹)
Please give a number only; it is taken to be in M⁻¹ s⁻¹.

2114_16 antibody (antibody, V domains shown, also called 2114 antibody) VH: EVQLQQSGPELVKPGASVKISCKASGYTFTDYYMNWVKRRHGKSLEWIGNINPNNGGTSYNQKFKGKATLTVDKSSSTAYMELRSLTSEDSVVYYCAREGDLFPFAYWGQGTLVTVSA VL: QAVVTQESALTTSPGETVTLTCRSSIGTVTTSNFANWVQEKPDHLFTGLIGASNNRAPGVPARFSGSLIGDKAALTITGAQTEDEAIYFCALWFSNHWVFGGGTKLTVL: 570000
1864_10 antibody (antibody, V domains shown) VH: QVQLQQSGPALVKPGASLKISCEASGYTFTYYSINWVKQRPGQGLEWIGWIFPGSGSTYYNEKFKGKATLTIDKSSSTAYMLLSSLTSEDSAVYFCARSDYGSAYGYFDVWGTGTTVTVSS VL: DIVLTQSPASLAVSLGQRATISCRASKSVSTSGYSYMHWYQQKPGQPPKLLIYLASNLESGVPARFSGSGSGTDFTLNIHPVEEEDAATYYCQHSRDLPLTFGAGTKLELK: 563000

Lab note: next binder to report on.
Q: kon lookup needed for 2020_12 antibody (antibody, V domains shown) VH: QVQLQQPGAELAKPGASVKLSCKASGYTFTSYWMHWVKQRPGQGLEWIGLIPPNSGSSNYNEKFKSKATLTVDKSSRTAYMQLSSLTSEDSAVYYCARWDYGSSYGYFDVWGTGTTVTVSS VL: DIVLTQSPASLAVSLGQRATISCRASESVSTSGYSYMHWYQQKPGQPPKLLIYLASNLESGVPVRFSGSGSGTDFTLNIHPVEEEDAATYYCQHSRELPPTFGAGTKLELK , thanks.
Result: 654000
